- target of assay: T1, Anti-CD28 scFv (VH-linker 1-VL) (biotinylated (site not stated))
- T1 construct: biotinylated and captured on neutravidin coated plates in the phage ELISA
- T1 sequence (scFv, as listed by the source): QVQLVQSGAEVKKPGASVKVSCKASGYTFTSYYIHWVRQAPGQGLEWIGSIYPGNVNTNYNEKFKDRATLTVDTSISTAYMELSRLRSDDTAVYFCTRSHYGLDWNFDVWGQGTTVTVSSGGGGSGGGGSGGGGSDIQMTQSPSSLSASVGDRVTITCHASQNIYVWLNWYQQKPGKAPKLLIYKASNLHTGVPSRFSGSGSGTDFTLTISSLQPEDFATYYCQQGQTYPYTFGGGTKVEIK
- method description: phage ELISA, captured biotinylated scFv; background signal 0.066
experimental readout: Phage binding ELISA CD28 scFv signal
Just the number.

Solved entries (count: 3):
>  <binder>
MDWCPIDLWNECFF [Phage-19]

>  <Phage binding ELISA CD28 scFv signal>
2.52

$$$$
>  <binder>
MDWCPRHLWAECFF [Phage-86]

>  <Phage binding ELISA CD28 scFv signal>
2.61

$$$$
>  <binder>
MDWCPRDLWHECFS [Phage-79]

>  <Phage binding ELISA CD28 scFv signal>
2.65

$$$$

Shifting focus to the binder that follows.
So what does the record say about Phage binding ELISA CD28 scFv signal for MDWCPRYLWFECFA [Phage-114] ?
2.5

Attribution: patent US20230357447A1
